Compiled literature pKi, tested on UniProtKB P41595.
# pKi: negative log10 of molar concentration; output just the value

Examples with their reported pKi follow.
                                   compound  result_number
0  CCC1(OC)c2ccccc2-c2ccc(C(=O)N=C(N)N)cc21.Cl (centres undefined)           8.32
1  N[C@@H]1CCN(c2ccc3[nH]nc(S(=O)(=O)c4cccc5ccccc45)c3c2)C1           6.56
2  NC(N)=NC(=O)c1ccc2c(c1)C(O)c1cccc(F)c1-2 (centres undefined)           9.04

Turning now to a further record.
UniProtKB P41595 data for COc1ccc(N2Cc3ccc(Cl)c(Cl)c3C2=O)cc1OCCN1CCC(C)CC1 ; its pKi: 7.00

====

From various publications: pKi for 5-hydroxytryptamine receptor 2B (Homo sapiens).
pKi: −log10 of the molar value.
Response key: yes means pKi >= 8; no means pKi < 8.

See these solved cases before continuing.
                                   compound  label
0        O=C(NCC(=O)N1CCCC1)Nc1ccc2cnccc2c1     no
1  Cc1cc2c(cc1C(F)(F)F)N(C(=O)Nc1ccc(OCc3ccccn3)cc1)CC2     no
2  NC(N)=NC(=O)c1ccc2c(c1)C(O)c1cc(Cl)ccc1-2 (stereo unspecified)    yes
3  COc1ccc(N2CCN(c3ccc(C)c(C(F)(F)F)c3)C2=O)cc1OCCN1CCOCC1     no
4  OC[C@H]1O[C@@H](n2cc(C(F)(F)F)c3c(NCc4ccccc4F)ncnc32)[C@H](O)[C@@H]1O     no

Could you please find out whether COc1ccc(N2CCC(C)(c3ccc(Cl)c(Cl)c3)C2=O)cc1OCCN1CCC(C)CC1 (stereo unspecified) has pKi that meets 8 or exceeds it?
no

# check: pKi of COc1ccc(N2CC=C(c3ccc(Cl)c(Cl)c3)C2=O)cc1OCCN1CCC(C(C)C)CC1 is greater than or equal to 8
no

Is reported pKi greater than or equal to 8 here: COc1ccc(N2CC=C(c3ccc(F)cc3)C2=O)cc1OCCN1CCC(C)CC1
no

Reported pKi reaches at least 8 for COc1ccc2[nH]c3c(-c4cn(C)c5ccccc45)nccc3c2c1 ?
no

Check if pKi >= 8 (inclusive). Item: COc1ccc(N2CC=C(c3cccc(F)c3)C2=O)cc1OCCN1CCCCC1
no

Given COc1cc(OC)c(C2NCCc3c2[nH]c2ccc(Cl)cc32)cc1OC (stereo unspecified) , state whether its pKi is at least 8.
yes

Could you verify whether the entry Cc1nc2ccc(NC(=O)Nc3ccnc4ccccc34)cc2o1 shows pKi of no less than 8?
no

====

Here is a set of molecules with reported pKi for UniProt P41595, compiled from the literature.
pKi: −log10 of the molar value.
# cutoff 7 applies to pKi; >= gives 1, < gives -1

Answered cases to consult:
>>> print(df.to_string())
                                   molecule  label
0  COc1c(OCCF)cccc1C(O)C1CCN(CCc2ccc([N+](=O)[O-])cc2)CC1 (stereo unspecified)     -1
1  Cc1cc2c(cc1Cl)N(C(=O)Nc1cnc(Oc3cccnc3C)c(Cl)c1)CC2      1
2  Cc1cc2c(cc1Cl)N(C(=O)Nc1ccc(OCc3cccnc3)nc1)CC2      1
3  O=C(Nc1ccc(OCc2ccccn2)nc1)N1CCc2c(Cl)cccc21     -1
4  O=S(=O)(c1cccc2ccccc12)c1n[nH]c2ccc(N3CCNCC3)cc12     -1
5  O=C(C1CCCCC1)N(CCN1CCN(c2ccccc2)CC1)c1ccccn1     -1

Assess whether reported pKi for CCCCCCOc1cc2c(cc1OC)-c1c(OC)c(OC)cc3c1[C@H](C2)N(C)CC3 sits at 7 or higher.
1

Threshold query (pKi >= 7) on CC(C)Cn1nc(S(=O)(=O)c2cccc3ccccc23)c2cc(N3CC[C@@H](N)C3)ccc21
-1

Determine whether measured pKi meets or exceeds 7 for CC1(O)c2ccccc2-c2ccc(C(=O)N=C(N)N)cc21.Cl (stereo unspecified)
1

Quick check, pKi >= 7? O=C(Nc1ccccc1)N1OCC2CSc3ccc(F)cc3C21 (stereo unspecified)
-1

Identify whether the reported pKi of the following molecule is 7 or greater: Cc1ccccc1[C@@H]1C[C@@H](N(C)C)Cc2ccccc21
-1

Entry O=C1C(c2ccc(Cl)c(Cl)c2)=CCN1c1ccc(N2CCCC2)c(OCCN2CCCCC2)c1 : is its pKi no less than 7?
-1

// inclusive: pKi at least 7? input: N[C@H]1CCN(c2ccc3[nH]nc(S(=O)(=O)c4cccc5ccccc45)c3c2)C1
1
